# TEST_METHOD_NOTES: Cytotoxicity against human CEM cells assessed as reduction in cell viability by MTT assay
# Format: cell-based
# CONDITIONS: CEM (CCRF-CEM) cells
Measured CC50, listed per entry.
QUANTITY_NAME: CC50 (µM)

{"COMPOUND": "Cc1c(C(=O)C(=O)N2CCN(C)CC2)c(C)n(C)c1C(=O)Nc1ccc(F)c(F)c1", "RELATION_QUALIFIER": "=", "RECORDED_VALUE": 24.7}
{"COMPOUND": "Cn1cc(C(=O)C(=O)NCc2ccccc2)cc1C(=O)Nc1ccc(F)c(F)c1", "RELATION_QUALIFIER": ">", "RECORDED_VALUE": 100}
{"COMPOUND": "Nc1ccn([C@@H]2CS[C@H](CO)O2)c(=O)n1 [LAMIVUDINE]", "RELATION_QUALIFIER": ">", "RECORDED_VALUE": 100}
{"COMPOUND": "Cc1c(C(=O)C(=O)Nc2nccs2)c(C)n(C)c1C(=O)Nc1ccc(F)c(F)c1", "RELATION_QUALIFIER": "=", "RECORDED_VALUE": 26.8}
{"COMPOUND": "Cc1c(C(=O)C(=O)Nc2ccccn2)c(C)n(C)c1C(=O)Nc1ccc(F)c(F)c1", "RELATION_QUALIFIER": "=", "RECORDED_VALUE": 14.6}

###

Measured CC50, listed per entry.
# TEST_METHOD_NOTES: Cytotoxicity against human HepG2 cells assessed as reduction in cell viability by MTT assay
# Type: cell-based

{"LINE_NOTATION": "C#CCNC(=O)C(=O)c1cc(C(=O)Nc2ccc(F)c(F)c2)n(C)c1", "QUANTITY_UNIT": "µM", "RELATION_QUALIFIER": ">", "CC50": 100}
{"LINE_NOTATION": "Cn1cc(C(=O)C(=O)N2CCOCC2)cc1C(=O)Nc1ccc(F)c(F)c1", "QUANTITY_UNIT": "µM", "RELATION_QUALIFIER": "=", "CC50": 93.9}
{"LINE_NOTATION": "C#CCNC(=O)C(=O)c1c(C)c(C(=O)Nc2ccc(F)c(F)c2)n(C)c1C", "QUANTITY_UNIT": "µM", "RELATION_QUALIFIER": ">", "CC50": 100}
{"LINE_NOTATION": "Nc1ccn([C@@H]2CS[C@H](CO)O2)c(=O)n1", "QUANTITY_UNIT": "µM", "RELATION_QUALIFIER": ">", "CC50": 100}
{"LINE_NOTATION": "Cc1c(C(=O)C(=O)NCc2ccccn2)c(C)n(C)c1C(=O)Nc1ccc(F)c(F)c1", "QUANTITY_UNIT": "µM", "RELATION_QUALIFIER": "=", "CC50": 7.2}
{"LINE_NOTATION": "Cc1c(C(=O)C(=O)Nc2nc3ccccc3[nH]2)c(C)n(C)c1C(=O)Nc1ccc(F)c(F)c1", "QUANTITY_UNIT": "µM", "RELATION_QUALIFIER": "=", "CC50": 74.9}
{"LINE_NOTATION": "Cc1c(C(=O)C(=O)N2CCN(C)CC2)c(C)n(C)c1C(=O)Nc1ccc(F)c(F)c1", "QUANTITY_UNIT": "µM", "RELATION_QUALIFIER": "=", "CC50": 95.4}
{"LINE_NOTATION": "Cn1cc(C(=O)C(=O)Nc2ccccc2)cc1C(=O)Nc1ccc(F)c(F)c1", "QUANTITY_UNIT": "µM", "RELATION_QUALIFIER": ">", "CC50": 100}
{"LINE_NOTATION": "Cn1cc(C(=O)C(=O)NCC#N)cc1C(=O)Nc1ccc(F)c(F)c1", "QUANTITY_UNIT": "µM", "RELATION_QUALIFIER": ">", "CC50": 100}
{"LINE_NOTATION": "Cc1c(C(=O)C(=O)Nc2nccs2)c(C)n(C)c1C(=O)Nc1ccc(F)c(F)c1", "QUANTITY_UNIT": "µM", "RELATION_QUALIFIER": "=", "CC50": 83.9}
